test: Thermodynamic aqueous solubility at pH 2 measured at 72 hrs by UPLC analysis; format: physicochemical; settings: aqueous solution, read-out: Therm_solubility
Assay endpoint: solubility thermodynamic at 72 h

# Structure smiles string, solubility thermodynamic at 72 h
measured = [
    ("N#C[C@@]1(c2ccc3c(N)ncnn23)O[C@H](CO)[C@@H](O)[C@H]1O", "≤ 1000 µg/mL"),
    ("CC(C)C(=O)OC[C@H]1O[C@@](C#N)(c2ccc3c(N)ncnn23)[C@H](OC(=O)C(C)C)[C@@H]1OC(=O)C(C)C", "600 µg/mL"),
    ("CC(C)C(=O)OC[C@H]1O[C@@](C#N)(c2ccc3c(N)ncnn23)[C@H](O)[C@@H]1O", "≥ 40000 µg/mL"),
]

// next item, solubility thermodynamic at 72 h requested
Problem: # solubility thermodynamic at 72 h lookup, item `CC(=O)OC[C@H]1O[C@@](C#N)(c2ccc3c(N)ncnn23)[C@H](OC(C)=O)[C@@H]1OC(C)=O`
Solution: ≥ 40000 µg/mL

---

test system: SARS-CoV-2; test: Antiviral activity against SARS-CoV-2 Omicron BA.2.12.1 infected in human A549-hACE2-TMPRSS2 cells assessed as reduction in viral replication pre-incubated with compound followed by viral infection measured after 72 hrs by ELISA assay; type: functional, organism-based; conditions: Severe acute respiratory syndrome coronavirus 2, Omicron BA.2.12.1, A549-hACE2-TMPRSS2
Measured pEC50 by item
By convention, pEC50 is the negative base-10 log of a molar concentration.

# Structure smiles string, Reported result
rows = [
    ("N#C[C@@]1(c2ccc3c(N)ncnn23)O[C@H](CO)[C@@H](O)[C@H]1O", 5.75),
    ("CCC(CC)COC(=O)[C@H](C)N[P@](=O)(OC[C@H]1O[C@@](C#N)(c2ccc3c(N)ncnn23)[C@H](O)[C@@H]1O)Oc1ccccc1", 7.52),
]

Problem: # pEC50 lookup, item `CC(C)C(=O)OC[C@H]1O[C@@](C#N)(c2ccc3c(N)ncnn23)[C@H](O)[C@@H]1O`
Solution: 6.36

---

system: SARS-CoV-2; assay: Antiviral activity against SARS-CoV-2 WA1 infected in human A549-hACE2-TMPRSS2 cells assessed as reduction in viral replication pre-incubated with compound followed by viral infection measured after 72 hrs by ELISA assay; format: functional, organism-based; conditions: Severe acute respiratory syndrome coronavirus 2, WA1, A549-hACE2-TMPRSS2
Assay endpoint: EC50
Express your answer as a number followed by its unit.

Example entries begin here.
# Structure smiles string, Reported result
data = [
    ("N#C[C@@]1(c2ccc3c(N)ncnn23)O[C@H](CO)[C@@H](O)[C@H]1O", "4450 nM"),
    ("CCC(CC)COC(=O)[C@H](C)N[P@](=O)(OC[C@H]1O[C@@](C#N)(c2ccc3c(N)ncnn23)[C@H](O)[C@@H]1O)Oc1ccccc1", "80 nM"),
]

// next item, EC50 requested
Problem: # EC50 lookup, item `CC(C)C(=O)OC[C@H]1O[C@@](C#N)(c2ccc3c(N)ncnn23)[C@H](O)[C@@H]1O`
Solution: 1010 nM

---

experiment: Apparent permeability of the compound from apical to basolateral side in human Caco-2 cells incubated for 2 hrs by LC-MS/MS analysis; assay type: ADME, cell-based; settings: Caco-2
Assay endpoint: Papp A→B at 2 h (×10⁻⁶ cm/s)
Entry rule: numbers only, all in ×10⁻⁶ cm/s.

Problem: # Papp A→B at 2 h lookup, item `CC(=O)OC[C@H]1O[C@@](C#N)(c2ccc3c(N)ncnn23)[C@H](OC(C)=O)[C@@H]1OC(C)=O`
Solution: 4

Problem: # repeat for `CC(=O)OC[C@H]1O[C@@](C#N)(c2ccc3c(N)ncnn23)[C@H](O)[C@@H]1O`
Solution: 1.4

Problem: # repeat for `CC(C)C(=O)OC[C@H]1O[C@@](C#N)(c2ccc3c(N)ncnn23)[C@H](O)[C@@H]1O`
Solution: 1

Problem: # repeat for `N#C[C@@]1(c2ccc3c(N)ncnn23)O[C@H](CO)[C@@H](O)[C@H]1O`
Solution: 0.1
